- experimentalSystem: feline FcRn complex (FcRn-α subunit and β-microglobulin) (feline)
- method: SPR (Biacore), FcRn on SA chip, pH 7.4
Below, each of the binders is paired with its reported Kd value.
Write the value in µM as a bare number.

feline IgG1a mutant ID No. 354: S252Y, S428M, S434F, T250Q (antibody, part only; not given: variable domains and light chain, not shown: another chain or arm of the molecule) constant: ASTTAPSVFPLAPSCGTTSGATVALACLVLGYFPEPVTVSWNSGALTSGVHTFPAVLQASGLYSLSSMVTVPSSRWLSDTFTCNVAHPPSNTKVDKTVRKTDHPPGPKPCDCPKCPPPEMLGGPSIFIFPPKPKDQLYISRTPEVTCLVVDLGPDDSDVQITWFVDNTQVYTAKTSPREEQFNSTYRVVSVLPILHQDWLKGKEFKCKVNSKSLPSPIERTISKAKGQPHEPQVYVLPPAQEELSRNKVSVTCLIKSFHPPDIAVEWEITGQPEPENNYRTTPPQLDSDGTYFVYSKLSVDRSHWQRGNTYTCSVMHEALHFHHTQKSLTQSPGK
0.00446
feline IgG1a mutant ID No. 272: S252R, S434F (antibody, part only; not given: variable domains, not shown: another chain or arm of the molecule) constant: ASTTAPSVFPLAPSCGTTSGATVALACLVLGYFPEPVTVSWNSGALTSGVHTFPAVLQASGLYSLSSMVTVPSSRWLSDTFTCNVAHPPSNTKVDKTVRKTDHPPGPKPCDCPKCPPPEMLGGPSIFIFPPKPKDTLRISRTPEVTCLVVDLGPDDSDVQITWFVDNTQVYTAKTSPREEQFNSTYRVVSVLPILHQDWLKGKEFKCKVNSKSLPSPIERTISKAKGQPHEPQVYVLPPAQEELSRNKVSVTCLIKSFHPPDIAVEWEITGQPEPENNYRTTPPQLDSDGTYFVYSKLSVDRSHWQRGNTYTCSVSHEALHFHHTQKSLTQSPGK
11.9
feline IgG1a mutant ID No. 276: S252R, S434R, Q311W (antibody, part only; not given: variable domains and light chain, not shown: another chain or arm of the molecule) constant: ASTTAPSVFPLAPSCGTTSGATVALACLVLGYFPEPVTVSWNSGALTSGVHTFPAVLQASGLYSLSSMVTVPSSRWLSDTFTCNVAHPPSNTKVDKTVRKTDHPPGPKPCDCPKCPPPEMLGGPSIFIFPPKPKDTLRISRTPEVTCLVVDLGPDDSDVQITWFVDNTQVYTAKTSPREEQFNSTYRVVSVLPILHWDWLKGKEFKCKVNSKSLPSPIERTISKAKGQPHEPQVYVLPPAQEELSRNKVSVTCLIKSFHPPDIAVEWEITGQPEPENNYRTTPPQLDSDGTYFVYSKLSVDRSHWQRGNTYTCSVSHEALHRHHTQKSLTQSPGK
14.8

Now consider the entry below.
Briefly, Kd measured for feline IgG1a mutant ID No. 372: S252Y, S434R, Q311M (antibody, part only; not given: Variable domains, not shown: another chain or arm of the molecule) constant: ASTTAPSVFPLAPSCGTTSGATVALACLVLGYFPEPVTVSWNSGALTSGVHTFPAVLQASGLYSLSSMVTVPSSRWLSDTFTCNVAHPPSNTKVDKTVRKTDHPPGPKPCDCPKCPPPEMLGGPSIFIFPPKPKDTLYISRTPEVTCLVVDLGPDDSDVQITWFVDNTQVYTAKTSPREEQFNSTYRVVSVLPILHMDWLKGKEFKCKVNSKSLPSPIERTISKAKGQPHEPQVYVLPPAQEELSRNKVSVTCLIKSFHPPDIAVEWEITGQPEPENNYRTTPPQLDSDGTYFVYSKLSVDRSHWQRGNTYTCSVSHEALHRHHTQKSLTQSPGK : 0.0219
